The molecules listed here are annotated with their melting point.

Sample answers from the record:
O=C(Oc1ccc2cc(CN3CCCC3)ccc2c1)N1CCC(c2ccc(F)cc2)CC1: 106 to 108 °C
C[C@@H]1CCC[C@H](C)N1Cc1ccc2cc(NC(=O)c3ccc(-c4ccc(F)cc4)cc3)ccc2n1: 187 to 188 °C
Cc1ccc(-c2ccc(C(=O)Nc3ccc4nc(CN5CCCC5)ccc4c3)cc2)cc1: 192 to 193 °C
Cc1ccc(C2CCN(C(=O)Nc3ccc4cc(CN5CCCC5)ccc4c3)CC2)cc1: 210 to 212 °C
O=C(Nc1ccc2nc(CN3CCN=C3c3ccccc3)ccc2c1)c1ccc(-c2ccccc2)cc1: 212 to 216 °C (dec.)
O=C(Nc1ccc2nc(CN3CCCC3)ccc2c1)c1ccc(-c2ccc(Cl)cc2)cc1: 200 to 202 °C
O=C(Nc1ccc2nc(CN3CCCC3)ccc2c1)c1ccc(-c2ccccc2)cc1: 181 to 183 °C
COc1ccc(-c2ccc(C(=O)Nc3ccc4nc(CN5CCCCC5)ccc4c3)cn2)cc1: 210 to 211 °C (dec.)

Read the next record carefully.
Exercise: Need melting point, item O=C(Nc1ccc2nc(CN3CCCCC3)ccc2c1)c1ccc(-c2ccc(F)cc2F)cc1 (hydrate or solvate)
Key: 181 to 182 °C

* * *

observable: melting point

Exercise: Need melting point, item `CC1=NCCN1Cc1ccc2cc(NC(=O)c3ccc(-c4ccccc4)cc3)ccc2n1`
Key: 212 to 220 °C (dec.)

Exercise: Need melting point, item `C[C@@H]1CCC[C@H](C)N1Cc1ccc2cc(NC(=O)c3ccc(-c4ccc(Cl)cc4)nc3)ccc2n1`
Key: 217 to 219 °C (dec.)

Exercise: Need melting point, item `COc1ccc(C2CCN(C(=O)Nc3ccc4cc(CN5CCCC5)ccc4c3)CC2)cc1`
Key: 194 to 196 °C

* * *

The molecules listed here are annotated with their melting point.

Sample answers from the record:
O=C(Nc1ccc2nc(CN3CCCC3)ccc2c1)c1ccc(N2CCCCC2=O)cc1 [Example 22]: 210 to 212 °C
CC1CCN(c2ccc(C(=O)Nc3ccc4nc(CN5CCCC5)ccc4c3)cc2)CC1 [Example 21]: 200 to 202 °C
Cc1ccc(-c2ccc(C(=O)Nc3ccc4nc(CN5[C@H](C)CCC[C@@H]5C)ccc4c3)cc2)cc1 [Example 81]: 198 to 199 °C (dec.)
CC1(C)CCCC(C)(C)N1Cc1ccc2cc(NC(=O)N3CCC(c4ccc(Cl)cc4)CC3)ccc2n1 [Example 74]: 203 to 204 °C
O=C(Nc1ccc2nc(CN3CCCCC3)ccc2c1)N1CCC(c2ccc(Cl)cc2)CC1 [Example 63]: 214 to 217 °C (dec.)

Exercise: Need melting point, item `Cc1ccc(C2CCN(C(=O)Oc3ccc4cc(CN5CCCC5)ccc4c3)CC2)cc1`
Key: 238 to 240 °C

Exercise: Need melting point, item Cc1ccc(C2CCN(C(=O)Nc3ccc4nc(CN(C(C)C)C(C)C)ccc4c3)CC2)cc1 [Example 139]
Key: 184 to 186 °C

Exercise: Need melting point, item Cc1ccc(C2CCN(C(=O)Nc3ccc4nc(CN5C(C)(C)CCCC5(C)C)ccc4c3)CC2)cc1 [Example 75]
Key: 200 to 202 °C

Exercise: Need melting point, item O=C(Nc1ccc2nc(CN3CCCC3)ccc2c1)C1CCN(c2ccc(Cl)cc2)CC1 [Example 52]
Key: 204 to 206 °C

Exercise: Need melting point, item Cc1ccc(C2CCN(C(=O)Nc3ccc4nc(CN5CCCC5)ccc4c3)CC2)cc1 [Example 41]
Key: 214 to 216 °C

Exercise: Need melting point, item O=C(Nc1ccc2nc(CN3CCOCC3)ccc2c1)c1ccc(-c2ccc(Cl)cc2)cc1 [Example 11]
Key: 236 to 238 °C

Exercise: Need melting point, item Cc1ccc(-c2ccc(C(=O)Nc3ccc4nc(CN(C)C)ccc4c3)cn2)cc1 [Example 17]
Key: 220 to 222 °C

* * *

observable: melting point

Sample answers from the record:
O=C(Nc1ccc2nc(CN3CCCCC3c3cccnc3)ccc2c1)c1ccc(-c2ccc(Cl)cc2)cc1 (stereo not shown): 124 to 126 °C (dec.)
O=C(Nc1ccc2nc(CN3CCCC3)ccc2c1)c1ccc(-c2ccc(F)cc2)cc1: 190 to 193 °C

Exercise: Need melting point, item `CC(C)N(Cc1ccc2cc(NC(=O)c3ccc(-c4ccc(F)cc4)cc3)ccc2n1)C(C)C`
Key: 207 to 209 °C

Exercise: Need melting point, item `COc1ccc(-c2ccc(C(=O)Nc3ccc4nc(CN5CCCC5)ccc4c3)cc2)cc1`
Key: 197 to 199 °C

* * *

observable: melting point

Cc1ccc(C2CCN(C(=O)Nc3ccc4nc(CN5[C@H](C)CCC[C@@H]5C)ccc4c3)CC2)cc1 [Example 86]: 177 to 178 °C (dec.)
Cl.O=C(Oc1ccc2cc(CN3CCCC3)ccc2c1)N1CCC(c2ccccc2)CC1: 213 to 215 °C
Cc1ccc(-c2ccc(C(=O)Nc3ccc4nc(CN5CCCCC5)ccc4c3)cn2)cc1 [Example 58]: 206 to 207 °C (dec.)
O=C(Nc1ccc2nc(CN3CCCCC3)ccc2c1)c1ccc(-c2ccc(Cl)cc2)nc1 [Example 57]: 215 to 218 °C (dec.)
O=C(Nc1ccc2nc(CN3CCCCC3)ccc2c1)c1ccc(-c2ccc(F)cc2)nc1 [Example 59]: 209 to 210 °C (dec.)

Exercise: Need melting point, item CN(C)Cc1ccc2cc(NC(=O)c3ccc(-c4ccc(Cl)cc4)cc3)ccc2c1 [Example 1]
Key: 230 to 231 °C

Exercise: Need melting point, item Cc1ccc(-c2ccc(C(=O)Nc3ccc4cc(CN5C(C)(C)CCCC5(C)C)ccc4c3)cc2)cc1 [Example 122]
Key: 235 to 237 °C

Exercise: Need melting point, item CN(C)Cc1ccc2cc(NC(=O)c3ccc(-c4ccc(Cl)cc4)cc3)ccc2n1 [Example 6]
Key: 219 to 221 °C

Exercise: Need melting point, item O=C(Nc1ccc2nc(CN3CCCCC3)ccc2c1)N1CCC(c2ccc(F)cc2)CC1 [Example 65]
Key: 203 to 204 °C (dec.)

Exercise: Need melting point, item COc1ccc(C2CCN(C(=O)Nc3ccc4cc(CN5C(C)(C)CCCC5(C)C)ccc4c3)CC2)cc1 [Example 119]
Key: 164 to 166 °C

Exercise: Need melting point, item CC(C)N(Cc1ccc2cc(NC(=O)c3ccc(-c4ccc(Cl)cc4)cc3)ccc2c1)C(C)C [Example 124]
Key: 246 to 250 °C

Exercise: Need melting point, item Cc1ccc(-c2ccc(C(=O)Nc3ccc4nc(CN5CCOCC5)ccc4c3)cn2)cc1 [Example 14]
Key: 214 to 216 °C

Exercise: Need melting point, item COC[C@@H]1CCCN1Cc1ccc2cc(NC(=O)c3ccc(-c4ccc(Cl)cc4)cc3)ccc2n1 [Example 117]
Key: 172 to 174 °C

Exercise: Need melting point, item O=C(Nc1ccc2nc(CN3CCOCC3)ccc2c1)c1ccc(-c2ccccc2)cc1 [Example 12]
Key: 214 to 215 °C

Exercise: Need melting point, item O=C(Nc1ccc2cc(CN3CCCC3)ccc2c1)c1ccc(-c2ccc(Cl)cc2)cc1 [Example 2]
Key: 214 to 217 °C

Exercise: Need melting point, item Cc1ccc(-c2ccc(C(=O)Nc3ccc4nc(CN(C(C)C)C(C)C)ccc4c3)cn2)cc1 [Example 137]
Key: 211 to 213 °C

Exercise: Need melting point, item Cc1ccc(-c2ccc(C(=O)Nc3ccc4nc(CN5C(C)(C)CCCC5(C)C)ccc4c3)cn2)cc1 [Example 73]
Key: 246 to 247 °C

* * *

observable: melting point

COc1ccc(C2CCN(C(=O)Oc3ccc4cc(CN5CCCC5)ccc4c3)CC2)cc1: 127 to 129 °C

Exercise: Need melting point, item COc1ccc(-c2ccc(C(=O)Nc3ccc4nc(CN5CCCC5)ccc4c3)cn2)cc1 [Example 42]
Key: 210 °C (dec.)

Exercise: Need melting point, item O=C(Nc1ccc2nc(CN3CCCCC3)ccc2c1)c1ccc(-c2ccc(Cl)cc2)cc1 [Example 10]
Key: 211 to 213 °C

* * *

observable: melting point

Sample answers from the record:
CN(C)Cc1ccc2cc(NC(=O)c3ccc(-c4ccccc4)cc3)ccc2n1: 191 to 194 °C
O=C(Nc1ccc2nc(CN3CCCCC3)ccc2c1)c1ccc(-c2ccc(F)cc2)cc1: 202 to 204 °C

Exercise: Need melting point, item `CC1(C)CCCC(C)(C)N1Cc1ccc2cc(NC(=O)c3ccc(-c4ccc(F)cc4)cc3)ccc2c1`
Key: 238 to 241 °C

Exercise: Need melting point, item `C[C@@H]1CCC[C@H](C)N1Cc1ccc2cc(NC(=O)c3ccc(-c4ccccc4)cc3)ccc2n1`
Key: 180 to 181 °C

Exercise: Need melting point, item `CN1CCN(Cc2ccc3cc(NC(=O)c4ccc(-c5ccc(Cl)cc5)cc4)ccc3n2)CC1`
Key: 215 °C (dec.)

Exercise: Need melting point, item `CC1(C)CCCC(C)(C)N1Cc1ccc2cc(NC(=O)c3ccc(-c4ccc(Cl)cc4)cc3)ccc2c1`
Key: 244 to 246 °C

Exercise: Need melting point, item `CC1(C)CCCC(C)(C)N1Cc1ccc2cc(NC(=O)c3ccc(-c4ccc(Cl)cc4)nc3)ccc2n1`
Key: 258 to 259 °C
